Target: Voltage-dependent L-type calcium channel subunit alpha-1C (Canis lupus familiaris)
Assay: Reduction in amplitude of calcium-dependent slow-response action potential by blocking voltage sensitive calcium channel
property name: pIC50
Remember the convention: pIC50 equals -log10 of concentration in molar.

Please report the recorded pIC50 for CO/C(O)=C1\C(C)=Nc2ccccc2SC1c1cccc([N+](=O)[O-])c1 (stereo unspecified) .
6.85
